Below, each entry is listed alongside its reported CMC.
# Method notes: Determination of the critical micelle concentration (c.m.c.) with a Langmuir balance, without DNA
# Format: physicochemical
# Condition info: MES buffer 20 mM pH 6 containing 10 mM DTT

| Molecule | Comparison symbol | CMC, µM |
| --- | --- | --- |
| CCCCCCCCCCCOC(=O)[C@@H](N)CS [C11] | = | 80 |
| CCCCCCCCCCCCOC(=O)[C@@H](N)CS [C12] | = | 15 |
| CCCCCCCCOC(=O)[C@@H](N)CS [C8] | > | 2000 |
| CCCCCCCCCCOC(=O)[C@@H](N)CS [C10] | = | 320 |

---

# Method notes: Determination of the critical micelle concentration (c.m.c.) with a Langmuir balance, without DNA
# Format: physicochemical
# Condition info: n-alkyl esters of cysteine by chain length; Langmuir balance, 20 mM MES buffer, pH 6

| Molecule | c.m.c. |
| --- | --- |
| CCCCCCCCCCCOC(=O)[C@@H](N)CS [C11] | 80 µM |
| CCCCCCCCCCCCOC(=O)[C@@H](N)CS [C12] | 15 µM |
| CCCCCCCCCCOC(=O)[C@@H](N)CS [C10] | 320 µM |
| CCCCCCCCOC(=O)[C@@H](N)CS [C8] | > 2000 µM |

The measured values listed here are drawn from patent EP0945138A1.
